System: MDA-MB-231 breast
TEST_PROTOCOL: NCI tumour cell line growth inhibition, 48 h
Where a SMILES comes first, the peptide text is derived from it. [ ]: non-standard residue; d: D form. The star is where a group is joined. Bn2Val = CC(C)[C@@H](C(=O)*)N(Cc1ccccc1)Cc1ccccc1; NMeV = CN[C@H](C(=O)O)C(C)C; X29 = COc1ccc(CN*)c(OC)c1; dNMeA = CN[C@H](C)C(=O)O
ENDPOINT_LABEL: TGI (µM)

{"COMPOUND": "O=S1(=O)N(Cc2ccccc2)[C@@H](Cc2ccccc2)[C@H](O)[C@H](O)[C@H](Cc2ccccc2)N1Cc1ccccc1", "UNIT_OF_MEASUREMENT": "µM", "READING_QUALIFIER": "=", "VALUE": 6.39}
{"COMPOUND": "COc1ccc(CNC(=O)[C@@H]2CCCN2C(=O)[C@@H](C)N(C)C(=O)[C@H](C(C)C)N(C)C(=O)[C@@H](NC(=O)[C@H](C(C)C)N(Cc2ccccc2)Cc2ccccc2)C(C)C)c(OC)c1 (Bn2Val-V[NMeV][dNMeA]P-X29)", "UNIT_OF_MEASUREMENT": "µM", "READING_QUALIFIER": "=", "VALUE": 3.46}
{"COMPOUND": "NC(Cc1c[nH]c2cc([N+](=O)[O-])ccc12)C(=O)O (centres undefined)", "UNIT_OF_MEASUREMENT": "µM", "READING_QUALIFIER": ">", "VALUE": 100}
{"COMPOUND": "CCCn1cnc2c(SCC(=O)O)nc(N)nc21", "UNIT_OF_MEASUREMENT": "µM", "READING_QUALIFIER": ">", "VALUE": 100}
{"COMPOUND": "COC(=O)c1c(C)cccc1C1CN=NC12Cc1ccc(C)c(C)c1C2=O (centres undefined)", "UNIT_OF_MEASUREMENT": "µM", "READING_QUALIFIER": ">", "VALUE": 100}
{"COMPOUND": "CCN(Cc1cc(F)ccc1F)c1ccc(CO)c(Cl)c1", "UNIT_OF_MEASUREMENT": "µM", "READING_QUALIFIER": "=", "VALUE": 29.1}
{"COMPOUND": "O=C1C=C2CCC[C@H]3OC(=O)C[C@@]23CC1", "UNIT_OF_MEASUREMENT": "µM", "READING_QUALIFIER": ">", "VALUE": 100}
{"COMPOUND": "C=C1[C@@](C)([C@@H]2CCCS2)[C@H]2C(C)=C[C@]1(C)n1c(=O)n(-c3ccccc3)c(=O)n12", "UNIT_OF_MEASUREMENT": "µM", "READING_QUALIFIER": ">", "VALUE": 100}
{"COMPOUND": "C1=C/COCc2cc(ccc2OCCN2CCCC2)Nc2nccc(n2)-c2ccc(o2)COC/1", "UNIT_OF_MEASUREMENT": "µM", "READING_QUALIFIER": "=", "VALUE": 7.9}

====

Some compounds, each annotated with its measured TGI.
System: COLO 205 colon
TEST_PROTOCOL: NCI tumour cell line growth inhibition, 48 h

{"COMPOUND": "COc1ccc2nc3c(c(NCCCN(C)C)c2c1)CCCC3", "TARGET_UNDER_TEST": "COLO 205 colon", "TGI": "23 µM"}
{"COMPOUND": "Cc1cn(C2CC(CCCO)C(CO)O2)c(=O)[nH]c1=O (stereo not given)", "TARGET_UNDER_TEST": "COLO 205 colon", "TGI": "> 100 µM"}
{"COMPOUND": "CCCCCN(CCCCC)CC(O)c1cc(Cl)ccc1OC (stereo not given)", "TARGET_UNDER_TEST": "COLO 205 colon", "TGI": "18.6 µM"}
{"COMPOUND": "CC(C)(O)C1CC[C@]2(C)[C@H]3CC[C@@H]4[C@@]5(C)CCCC(C)(C)[C@@H]5CC[C@@]4(C)[C@]3(C)CC[C@@H]12 (stereo not given in full)", "TARGET_UNDER_TEST": "COLO 205 colon", "TGI": "> 100 µM"}
{"COMPOUND": "O=C1CC(C(OCc2ccccc2)C(OCc2ccccc2)C(COCc2ccccc2)OCc2ccccc2)CC(=O)N1 (stereo not given)", "TARGET_UNDER_TEST": "COLO 205 colon", "TGI": "> 100 µM"}
{"COMPOUND": "CN1N=C(c2ccncc2)OC1c1cccc(C(F)(F)F)c1 (stereo not given)", "TARGET_UNDER_TEST": "COLO 205 colon", "TGI": "> 100 µM"}
{"COMPOUND": "CC(=O)NNc1nc(C)c(C(=O)NNC(=O)C(=O)Nc2cccc(C(C)=O)c2)s1", "TARGET_UNDER_TEST": "COLO 205 colon", "TGI": "> 100 µM"}
{"COMPOUND": "NNc1cnn(-c2ccccc2)c(=O)c1Cl", "TARGET_UNDER_TEST": "COLO 205 colon", "TGI": "> 100 µM"}
{"COMPOUND": "CC1CN(S(=O)(=O)c2oc(-c3ccc(Cl)cc3)nc2C#N)CC(C)O1 (stereo not given)", "TARGET_UNDER_TEST": "COLO 205 colon", "TGI": "4.35 µM"}
{"COMPOUND": "O=c1c2cc(-c3ccccc3)sc2ncn1Cc1ccc(Cl)c(Cl)c1", "TARGET_UNDER_TEST": "COLO 205 colon", "TGI": "> 100 µM"}
